Each entry below lists one item and its recorded protein stability index value.
Assay: protein stability index of a GFP-peptide fusion (GPS, HEK-293T) (PSI 1-6); higher = more stable;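 note: 24-mer peptide tiles fused after GFP, lentivirally expressed, FACS-sorted into six equal bins by GFP/DsRed ratio, decoded by Illumina sequencing, PSI is the read-weighted mean bin number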
Conditions: treatment: MLN4924 1 uM, 8 h; c terminus: a fixed tail appended
Answer with a number only.

Input: State its protein stability index for this sequence: EQQQILIRQLQEQHYQQYMQQLYQ [ACBD3]
Output: 2.24

Input: Note protein stability index for the sequence shown: TFSGDVQLAQDDIDGIQAIYGRSQ [MMP1]
Output: 4.55

Input: Consider the sequence TIIASNAEEAEILHSACGLSKDHQ [TOR1AIP2] . State its measured protein stability index.
Output: 4.54

Input: Consider the sequence AWKELDRNYLNYGEEGAPGKWQQQ [CHGB] and give its recorded protein stability index.
Output: 3.75

Input: State its protein stability index: WMMQNLLLEEGGLVQVESVNLQVA [UFD1]
Output: 2.33

Input: Output protein stability index of AYVAEREDELSLVKGSRVTVMEKC [NCK2]
Output: 4.48

Input: For the sequence RRCGELKRKLGLTALVGLRQNLSK [TPD52L3] , give its reported protein stability index.
Output: 2.57

Input: Recall and state the measured protein stability index for ACHPFLLGPPLVRKRIHDSRVAGF [TOR1AIP2] .
Output: 2.5

* * *

Assay: protein stability index of a GFP-peptide fusion (GPS, HEK-293T) (PSI 1-6); higher = more stable
Settings: treatment: MLN4924 1 uM, 8 h; c terminus: a fixed tail appended
# protein stability index per record follows
Keep the answer to the number alone.

Reference set (2 entries):
MMHDQRTGPAWNVLMWTMLFLGQG [SOAT2] ... 2.65
CAMEDHNCEQLCVNVPGSFVCQCY [MATN2] ... 2.48

# input for lookup
Input: Give recorded protein stability index. ETTEAIDDEGWLHSGDLGQLDGLG [ACSBG2]
Output: 5.15

* * *

Experiment: protein stability index of a GFP-peptide fusion (GPS, HEK-293T) (PSI 1-6); higher = more stable
Conditions: treatment: DMSO; c terminus: a fixed tail appended
attribute-measured: protein stability index

Below: 3 sequences and their reported protein stability index.
PGPERLFDSHRLPGDCFLLLVLLL [AUP1] ... 2.46
QVSQVKGAARLALLQGAGLDVERW [FCHSD1] ... 2.89
PEITTEDIKAAFAPFGRISDARVV [TIA1] ... 3.34

Input: Determine from records and report protein stability index for EKCKEEFVEEIKKLATQHKQLISQ [ZMYND11]
Output: 4.2

Input: Report protein stability index, nothing else, for this sequence: LRQLVESDINSLRRILDELTLCRS [KRT33B]
Output: 2.31

* * *

Test: protein stability index of a GFP-peptide fusion (GPS, HEK-293T) (PSI 1-6); higher = more stable
Conditions: treatment: MLN4924 1 uM, 8 h; c terminus: a fixed tail appended
attribute-measured: protein stability index
The answer should be a number; do not append a unit.

Input: Look up and report measured protein stability index for this entry: ITLSQEQIQKYTDCLQFYVNSTLK [RTN1]
Output: 2.1

Input: For HFAEEERSKYDYLMILRRVVNEST [TENT5C] , write its protein stability index.
Output: 2.86

* * *

Each entry below lists one item and its recorded protein stability index value.
Experiment: protein stability index of a GFP-peptide fusion (GPS, HEK-293T) (PSI 1-6); higher = more stable
Conditions: treatment: MLN4924 1 uM, 8 h; c terminus: a fixed tail appended
Give the figure by itself; no unit, no explanation.

Past entries and their recorded results:
CAGPGFTHNIAHGSLGFEPVYVSC [SPAG8] ... 2.49
KFPGQSSFLWQRGRKFLQKHLNAS [TOR1AIP2] ... 2.51
NVYHSYDLPWFRTLSWYFLLCVNY [CDS2] ... 2.98

Input: For the sequence MGCHGFRDPFECNMCGYHSQDRYE [IKZF1] , give its measured protein stability index value.
Output: 3

Input: Find the measured protein stability index of RGPGASGEQPEPGEAAAGGAAEEA [ACBD3] and report it.
Output: 5.62

Input: Retrieve protein stability index measured for FRLETLAGLRSRRLKQPKAFCLRD [MIR22HG] and print it.
Output: 2.46

Input: Using the record for ERDLQELSIQVEEERRAREWLLDA [ZMAT5] , state its measured protein stability index.
Output: 4.95

Input: Determine from records and report protein stability index for AQGPNKPGYLVGRNNANGVDLNRN [CPN1]
Output: 4.35

Input: Entry EQRANDLEQIMESVKSKIGELEDE [CEP70] needs its protein stability index filled in; supply it.
Output: 5.39

Input: Please list protein stability index recorded for the sequence LALLVLAHSSDVLENVFSSLTDDK [GOLPH3L]
Output: 2.83

Input: Specify protein stability index for KTLQEIYRKYRKLIESELSYFVIV [FBXO39] and stop.
Output: 2.62

Input: Tell me measured protein stability index for VHRQLSHLYAEPQKSPWCEARSLE [ESR2] please.
Output: 3.2

Input: Specify reported protein stability index for the sequence shown: HHFNSSHLEIDDMYTPAYGDFDFD [MYORG]
Output: 4.23

* * *

Assay: protein stability index of a GFP-peptide fusion (GPS, HEK-293T) (PSI 1-6); higher = more stable
Details: treatment: MLN4924 1 uM, 8 h; c terminus: a fixed tail appended
Give 1 when the value for protein stability index is at least 3. Give 0 when it is less.

As a guide, the following entries are already answered.
LRLCAWGLASWPLARGIHVAGILS [POMT2] ... 0
NHGQVVSYLLKSGADKEILTTKGE [ANKRD40] ... 1
TLTSVQLLDCFGIPVLMALSWFIL [SLC35F2] ... 0
WIPQAGPPELNYGATGECQNFLDP [ZNF449] ... 1

Input: hey, is protein stability index for this one >= 3? SSFPPSPGPSPDVQLATLAQRVKE [AUP1]
Output: 1

Input: Please tell me: is the sequence SSVICNDITAYLFGFFFGRTPLIK [CDS1] at or over 3 in terms of protein stability index?
Output: 0

* * *

Each entry below lists one item and its recorded protein stability index value.
Experiment: protein stability index of a GFP-peptide fusion (GPS, HEK-293T) (PSI 1-6); higher = more stable
Conditions: treatment: MLN4924 1 uM, 8 h; c terminus: a fixed tail appended
Answer as a number with no unit attached.

Example entries and their recorded answers appear below.
IRERATIEETYSKAMAKLSKLASN [FCHO1] ... 2.91
LPLMDLCRRSVRLALGRERLGEIH [SPSB1] ... 2.42
LVHSAVDVPTIQEKVNEGKYRSYE [ZMYND11] ... 4.32
EDFIFSHFFGDKALKKRSGKKDKH [PBXIP1] ... 4.13
ITVAELREAVPALLGEPLAGPELD [CABP4] ... 3.84
CFVEFHEHRHAAAALAAMNGRKIM [TIA1] ... 2.81
QQIGDAIRMIVRGTLGSCSSSSEC [PLK2] ... 2.08
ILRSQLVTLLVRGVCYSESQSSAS [CLCN6] ... 2.95
ILENRPPGSLLCTVAASDPDTGDN [PCDHGC5] ... 5.06
APGPSPADKKRSGKKKISKADIGA [WAS] ... 4.86

Input: Quote protein stability index reported for EDDGLQSAFTAAHELGHVFNMLHD [ADAMTS4] please.
Output: 3.9

* * *

Entries and their protein stability index
Test: protein stability index of a GFP-peptide fusion (GPS, HEK-293T) (PSI 1-6); higher = more stable
Details: treatment: DMSO; c terminus: a fixed tail appended
Would you mind answering with just the numeric figure?

GQCGENLAWASYDQTGKEVADRWY [GLIPR2] ... 2.68

Input: Hello, please tell me recorded protein stability index for this one: SPKYKQDVEGAESQLDEDEHGLHT [TRAF3IP2]
Output: 5.45

Input: Name the recorded protein stability index of the sequence listed here: ALENLQVEASCSVCLEYLKEPVII [TRIM39]
Output: 2.77

Input: For the sequence QSVKMKDKLKIDLLPDGRHAVVEV [TAF7L] , give its measured protein stability index value.
Output: 2.87

Input: Look up and state reported protein stability index for DALSSPTSVQEADETTRSDISERP [C2CD2L]
Output: 5.64

Input: Read the entry QEVSSVRSLSSTGSLPSHAPPSED [DLC1] and write its reported protein stability index.
Output: 5.42

Input: Give the measured protein stability index for ELLDLSKQYDQQFPDGDDEFDSPH [STX11]
Output: 4.89

* * *

protein stability index values, listed per item
Assay: protein stability index of a GFP-peptide fusion (GPS, HEK-293T) (PSI 1-6); higher = more stable
Conditions: treatment: MLN4924 1 uM, 8 h; c terminus: a fixed tail appended
Write the value as a bare number.

Known results for sequences:
LVVNIDNAKLASDDFRSKYQTEQS [KRT34] ... 3.62
YWKDTRTSGVVFTGLMVSLLCLLH [RTN2] ... 2.2

Input: Kindly indicate its recorded protein stability index. Item: IKKPESFSKQIVLRGKSIKRAPGE [NEUROD6]
Output: 4

Input: For the sequence IDEVRTQYEEIALKSKAEAEALYQ [KRT71] , give its measured protein stability index value.
Output: 5.01

Input: Check the records and state protein stability index for EEYCHKHYDRNKDGNKDVYLSLLR [VPS39]
Output: 3.19

Input: Give the reported protein stability index for this sequence. SQHCKPEEGLEARGEALGLVGAQA [MAGEA3]
Output: 4.73

Input: Provide one value: measured protein stability index of AALPPVPSPPAAPSVADNLLASSD [SERTAD1]
Output: 5.35

Input: Let me know recorded protein stability index for LVYENFYADFGPLNLAMVYRYCCK [CDC14A] , thanks.
Output: 2.5

Input: Tell me measured protein stability index for IEELEREAERKIIEENITSAAPSN [SRPK2] please.
Output: 5.17

Input: Indicate its recorded protein stability index; the sequence in question is IIDNTNLHAWEMKPYAVMVFQTEQ [N4BP2L1]
Output: 2.09

Input: Write down protein stability index measured for item FLSGMEAAPRTLAAHPPLPLLPPA [TBX6]
Output: 3.15

Input: Output measured protein stability index for this item: AWHCSESGQRLGGYRTSAVASGLQ [WDFY2]
Output: 3.1

Input: Identify measured protein stability index associated with TGIEESTDGMILGPEDLSYQIYDV [LARP4]
Output: 3.6

Input: Answer with the recorded protein stability index of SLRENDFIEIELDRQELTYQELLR [ANKRD40] only.
Output: 3.57

Input: In one line, give reported protein stability index of the entry LLCWSVWWALSTCGYFQVVNYTQG [SLC19A2] .
Output: 3.61

Input: Quote protein stability index reported for AIEIFRYSFYMLTCIDMDWKVLTW [HACD3] please.
Output: 2.57

Input: Consider the sequence LLEDDSDEEEDFFLRGPSGPRFGP [VAMP4] . State its measured protein stability index.
Output: 4.04

Input: Return reported protein stability index. Input sequence: WNILKTIALGQMLSLCICGTAITS [SLC35F2]
Output: 3.03

Input: Give protein stability index for the following sequence: FMVVDLLLGGDLRYHLQQNVHFKE [STK32A]
Output: 3.09

Input: Quote protein stability index reported for LGAGSDLKDFTLNETVNSIFAQGA [ADAMTSL2] please.
Output: 3.28

Source listed as the supplement of paper PMC10567573.
